These measurements were taken from PubChem BioAssay (NCI).

Catalogue of growth values
- Tested on: MOLT-4 leukemia
- method: NCI-60 one-dose screen, 48 h (100 = growth as untreated, 0 = no growth, -100 = all killed)
- test.conditions: 10 µM unless noted
Compounds without any hit were thinned out: in the full panel of roughly 83,000, 20% have a hit.
The answer is to be given in %; state only the numeric part.

Some molecules with known growth results, for comparison:
molecule	growth, %
CN1CCCCC1C(C)(O)c1ccccc1 (configuration not stated)	102
O=C(N/N=C/c1ccc(N(CCCl)CCCl)cc1)c1cccc2ccccc12	51.4
C/C=C(\C)C(=O)O[C@@H]1C(O)[C@H]2OC(COC(=O)CCC(=O)CCCCCC[C@H](CCCCC)O[C@@H]3OC(C)[C@H](OC(C)=O)C(O)[C@H]3O2)[C@H]1OC(=O)/C=C/c1ccccc1 (some centres not stated)	37.7
CC[C@H](C)[C@H](NC(=O)[C@H]1CCCCN1C)C(=O)N(C)[C@H](C[C@@H](OC(C)=O)c1cccc(C(=O)N[C@@H](Cc2ccccc2)C[C@H](C)C(=O)O)n1)C(C)C	17.8
COP(=O)(OC)C(O)c1ccc(Cl)cc1 (configuration not stated)	119

# input molecule: CCOC(=O)[C@@H](C)C[C@H](Cc1ccccc1)NC(=O)c1csc([C@@H](C[C@H](C(C)C)N(C)C(=O)[C@@H](NC(=O)[C@H]2CCCCN2C)C(C)(C)CC)OC(C)=O)n1 ; wanted: its growth 13.5

Field entry: CC(C)CCC(=O)O[C@H]1CC[C@H]2[C@@H]3CCC4=CC(=O)CC[C@]4(C)[C@H]3CC[C@]12C 96
